assayed.target: PAK4 (human) (UniProt O96013)
Sequence (O96013 whole entry, looked up): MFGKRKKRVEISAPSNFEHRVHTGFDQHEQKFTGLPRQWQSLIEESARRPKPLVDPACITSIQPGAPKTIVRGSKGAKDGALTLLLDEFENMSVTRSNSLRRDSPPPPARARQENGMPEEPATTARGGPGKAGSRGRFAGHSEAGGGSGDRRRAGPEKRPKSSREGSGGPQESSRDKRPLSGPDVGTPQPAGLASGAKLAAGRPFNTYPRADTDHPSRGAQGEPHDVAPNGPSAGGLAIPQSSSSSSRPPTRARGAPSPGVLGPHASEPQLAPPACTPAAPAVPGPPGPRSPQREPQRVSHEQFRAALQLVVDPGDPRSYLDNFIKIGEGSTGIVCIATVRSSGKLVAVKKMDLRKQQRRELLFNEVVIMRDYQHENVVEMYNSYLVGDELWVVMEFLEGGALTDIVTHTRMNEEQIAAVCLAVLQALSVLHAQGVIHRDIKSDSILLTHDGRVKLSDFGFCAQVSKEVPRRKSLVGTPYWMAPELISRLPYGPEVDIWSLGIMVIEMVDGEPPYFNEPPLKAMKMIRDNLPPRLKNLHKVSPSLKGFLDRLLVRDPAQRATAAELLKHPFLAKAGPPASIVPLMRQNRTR
protocol.notes: radiometric filter-binding kinase assay
reported.conditions: compound 1.0 µM
assay.endpoint: residual activity (%)

Observe how each entry below is paired with its result.
Enter measured residual activity, system PAK4 (human) (UniProt O96013), for the compound shown: `NC(=O)Nc1ccc2c(c1)/C(=C/c1cc(-c3cccnc3)c[nH]1)C(=O)N2`
31

Enter measured residual activity, system PAK4 (human) (UniProt O96013), for the compound shown: `O=C(Nc1ccccc1-c1cn2c(CN3CCNCC3)csc2n1)c1cnc2ccccc2n1`
110

Enter measured residual activity, system PAK4 (human) (UniProt O96013), for the compound shown: `Oc1ccc(/C=C/c2cc(O)cc(O)c2)cc1`
85

(I) COc1ccc(-n2ncc3cnc(Nc4cc(OC)c(OC)c(OCCCN5CCN(C)CC5)c4)nc32)cc1
(II) Cc1nc(-c2ccc(OCC(C)C)c(C#N)c2)sc1C(=O)O
Given the listed items, does I or II have the lesser reported residual activity? Let me know the label of the one you choose.
I
(I: 9%, II: 85%)

(A) FC(F)(F)c1ccc(-c2ccc(Oc3cncc4sc(-c5nn[nH]n5)cc34)cc2)cc1
(B) O=C(NCCCNc1nc(Nc2cccc(CN3CCOCC3)c2)ncc1C1CC1)C1CCC1
Form field 'greater residual activity' accepts A or B ; which applies? Let me know the label of the one you choose.
A

###

assayed.target: MKNK1 (human)
protocol.notes: radiometric filter-binding kinase assay
reported.conditions: compound 0.1 µM
assay.endpoint: residual activity (%)

Observe how each entry below is paired with its result.
Enter measured residual activity, system MKNK1 (human), for the compound shown: `O=C(N[C@@H](COc1ccc2[nH]c(=O)[nH]c2c1)c1ccccc1)c1cccn(Cc2ccc(F)c(F)c2)c1=O`
106

Enter measured residual activity, system MKNK1 (human), for the compound shown: `Cc1ccc(Sc2cnc(Nc3cccc(Br)n3)s2)cc1C(=O)N1CCN(C(=O)CN)CC1`
97

Enter measured residual activity, system MKNK1 (human), for the compound shown: `NC(=O)Nc1ccc2c(c1)/C(=C/c1cc(-c3cccnc3)c[nH]1)C(=O)N2`
80

Enter measured residual activity, system MKNK1 (human), for the compound shown: COc1ccc2c(c1)c1c3c(c4c5ccccc5n(C)c4c1n2CC(O)CN(C)C)C(=O)NC3=O (centres undefined)
94

Enter measured residual activity, system MKNK1 (human), for the compound shown: `NC(=O)c1cc2c(-c3cccc(-c4ccccc4)c3)cnc(N)c2s1`
107

(A) CCCCCc1ccc(/C=C/[C@H](O)[C@@H](CO)NC)cc1
(B) O=C(O)c1ccc(-c2c[nH]c3ncc(-c4ccccc4)cc23)cc1C1CCCC1
Form field 'greater residual activity' accepts A or B ; which applies? Let me know the label of the one you choose.
A

###

assayed.target: MAP3K5 (human) (UniProt Q99683)
Sequence (Q99683 whole entry, looked up): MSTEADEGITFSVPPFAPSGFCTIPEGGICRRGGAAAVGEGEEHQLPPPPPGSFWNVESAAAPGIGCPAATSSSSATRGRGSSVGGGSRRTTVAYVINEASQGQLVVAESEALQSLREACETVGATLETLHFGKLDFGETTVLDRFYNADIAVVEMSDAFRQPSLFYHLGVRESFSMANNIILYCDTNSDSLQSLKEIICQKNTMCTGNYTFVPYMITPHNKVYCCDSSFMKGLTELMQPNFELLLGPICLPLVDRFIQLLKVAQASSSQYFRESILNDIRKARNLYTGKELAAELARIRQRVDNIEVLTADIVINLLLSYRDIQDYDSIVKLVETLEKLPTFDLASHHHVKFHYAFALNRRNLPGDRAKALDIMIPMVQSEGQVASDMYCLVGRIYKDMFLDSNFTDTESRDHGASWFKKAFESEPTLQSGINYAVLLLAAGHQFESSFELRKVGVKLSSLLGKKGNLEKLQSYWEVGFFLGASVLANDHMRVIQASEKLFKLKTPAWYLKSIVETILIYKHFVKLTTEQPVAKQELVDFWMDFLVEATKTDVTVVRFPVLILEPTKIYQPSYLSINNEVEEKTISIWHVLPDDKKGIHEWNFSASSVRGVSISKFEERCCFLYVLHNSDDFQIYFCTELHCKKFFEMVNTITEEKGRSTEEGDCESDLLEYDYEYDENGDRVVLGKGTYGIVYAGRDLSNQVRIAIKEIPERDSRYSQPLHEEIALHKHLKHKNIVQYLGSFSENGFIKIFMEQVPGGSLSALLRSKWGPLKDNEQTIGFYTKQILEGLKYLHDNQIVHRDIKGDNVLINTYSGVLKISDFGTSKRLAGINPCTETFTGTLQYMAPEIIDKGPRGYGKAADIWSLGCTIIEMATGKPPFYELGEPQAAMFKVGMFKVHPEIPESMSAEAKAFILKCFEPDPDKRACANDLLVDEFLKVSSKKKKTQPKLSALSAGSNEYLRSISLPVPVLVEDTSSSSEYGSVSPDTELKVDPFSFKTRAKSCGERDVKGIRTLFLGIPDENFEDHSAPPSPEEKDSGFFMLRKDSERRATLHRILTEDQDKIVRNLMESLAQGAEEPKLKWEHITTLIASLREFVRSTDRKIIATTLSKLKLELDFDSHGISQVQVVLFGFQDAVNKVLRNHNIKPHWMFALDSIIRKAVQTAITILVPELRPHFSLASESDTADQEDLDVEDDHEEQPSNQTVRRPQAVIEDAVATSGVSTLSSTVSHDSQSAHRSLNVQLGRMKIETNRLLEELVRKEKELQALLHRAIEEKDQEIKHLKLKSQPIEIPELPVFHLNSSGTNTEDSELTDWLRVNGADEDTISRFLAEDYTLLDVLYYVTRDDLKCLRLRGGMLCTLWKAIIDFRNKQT
protocol.notes: radiometric filter-binding kinase assay
reported.conditions: compound 1.0 µM
assay.endpoint: residual activity (%)

Provide only the value of recorded residual activity for `NCC(=O)Nc1ccc(-n2nc(C(F)(F)F)cc2-c2ccc3c(ccc4ccccc43)c2)cc1`
86

Provide only the value of recorded residual activity for Nc1cccc2c1CN(C1CCC(=O)NC1=O)C2=O (centres undefined)
102

Provide only the value of recorded residual activity for CC1=C(CO)C(=O)O[C@@H]([C@@H](C)[C@H]2CC[C@H]3[C@@H]4C[C@H]5O[C@]56[C@@H](O)C=CC(=O)[C@]6(C)C4CC[C@]23C)C1 (some centres undefined)
100

Provide only the value of recorded residual activity for `COc1cc(O)c2c(c1)/C=C/C[C@H](O)[C@H](O)C(=O)/C=C\C[C@H](C)OC2=O`
95

Provide only the value of recorded residual activity for COc1cc(O)c2c(c1)[C@H]1OC1C[C@H](O)[C@H](O)C(=O)/C=C\C[C@H](C)OC2=O (some centres undefined)
109

(I) CCCCCc1ccc(/C=C/[C@H](O)[C@@H](CO)NC)cc1
(II) COc1cc(C(=O)N2CCOCC2)c(F)cc1Nc1ncc(C(F)(F)F)c(NC2CC2)n1
(III) CNC(=O)C1[C@H]2O[C@@](C)([C@@H]1N)n1c3ccccc3c3c4c(c5c6ccccc6n2c5c31)C(=O)NC4 (some centres undefined)
# ascending order, key=residual activity Form entry: labels listed in requested order.
III, II, I

Sourced from the kinase profiling compilation of Christmann-Franck et al. (2016)
